- Test system: MCF-7/Adr cells
- PROTOCOL_NOTES: Sensitizing effect of PA to conventional chemotherapeutic drugs (MTT)
- Format: cell-based, human
- CONDITIONS: IC50 without sensitizer / with sensitizer 10 μg/mL
Examples of compounds with documented RF (Ctrl/S), Vin follow.

COMPOUND: CCC/C=C1\OC(=O)C2=CC3CC[C@]21C1C2=C(CC[C@@H]31)C(CCCC)OC2=O (some centres unmarked)
RF (Ctrl/S), Vin: 9.597
--
COMPOUND: CCC/C=C1\OC(=O)C2=C1CC[C@H]1C3C=C4C(=O)O/C(=C\CCC)[C@@]4(CC3)C21 (some centres unmarked)
RF (Ctrl/S), Vin: 13.22
--
COMPOUND: CCCCC1OC(=O)c2cccc(O)c21 (centres unmarked)
RF (Ctrl/S), Vin: 6.239
--
COMPOUND: CCC/C=C1\OC(=O)C2=C1CCC1C(CCC)C3(OC(=O)C4=C3CCC=C4)C21 (centres unmarked)
RF (Ctrl/S), Vin: 3.831
--
COMPOUND: CCC/C=C1\OC(=O)C2=C1CCC(O)C2O (single isomer, unassigned)
RF (Ctrl/S), Vin: 6.934
